Assay: yeast display, Sf9 membrane polyspecificity reagent, FACS + sequencing; frameworks hold sequencing errors
metric: polyreactivity (PSR sort gate)

Below, each entry is followed by its recorded polyreactivity (PSR sort gate) result.
| query.sequence | result |
| --- | --- |
| PVQLVESGVCLVQAGGSLRLSCATPGSTIDFYAMGWYRQAPGKERELVARISSGGGRTYYADSVKGRFTISRDNAKNTVYLQMISLKPEDTAVYYCAAAYWYLDYYWGQGTQVTVSS | low polyreactivity |
| QVQLVESGGGLVKAGGSLRLSCAASGSTFDWYAMGWYRQAPGKERELVAAITWRGDSTNYADSVKGRFTISRDNAKNTVYLQMNSLKPEDTAVYYCATGKTYRDDYWGQGTQVTVSS | high polyreactivity |
| QVQLVESGGGLVQAGGSLRLSCAASGSTFAYYAMGWYRQAPGKERELVASISWRGGSTYYAESVKGRFTISRDNAKNTVYLQMNSLKPEDTAVYYCAAGRFYTWSRSQEYDYWGQGTQVTVSS | low polyreactivity |
| QDQLVESGGGLVQAGGSLRLSCAASGFTFGNNARGWYRQAPGKERQFVATISRRGGSTYYADSVKGRFTISRDNAKYTVYLQMNSLKPEDTAVYSCAVDRAGIKLAAGYDYWGQGTQVTVSS | high polyreactivity |

Consider the additional sequence presented here.
Assign polyreactivity (PSR sort gate) to the following record: QVQLVESGGGLVQAGGSLRLSCDASGRIFRYNAMGWYRQAPGKEREFVAAITWRGGSTYYADSVKGRFTISRDNAKYTVYLQMNSLKPEDTAVYYCATRSPFGAAYEYGYWGQGTQVTVSS
high polyreactivity

----------
Experiment: yeast display, Sf9 membrane polyspecificity reagent, FACS + sequencing; frameworks hold sequencing errors
metric: polyreactivity (PSR sort gate)

| query.sequence | polyreactivity (PSR sort gate) |
| --- | --- |
| QVQLVESGGGLVQAGGSLRLSCAASGFTFWFYAMGWYRQAPGKEREFVAGISRRGGSTYYADSVKGRFTISRDNAKNTVYLQMNSLKPEDTAVYYCASRQFHNGVTTAGYGYWGQGTQVTVSS | high polyreactivity |
| QVQLVESGGGLVQAGGSLRLSCAASGITFVPNAMGWYRQAPGKERELVAAITGNGGRTYYADSVKGRFTISRDNAKNTVYLQMNSLKPEDTAVYYCNGRKLYWAYTLSKYDYWGQGTQLTVSS | high polyreactivity |
| QVQLVESGGGIVQAGGSLRLSCAASGLTFGFNAKGWYTQAPGQERELVATIDLNGGSTTYADSVKGRFTLSRDNAKNTVYLQMNSLKPEDTAVYYCAAQTGFVSHFFSHYDYGGQGTQVTVSS | low polyreactivity |
| QVQLLESGGGLVQAGGSLRLTCGASGITFSVNTMGWYRQAPGKDRELVAAFTSAGGTYYADSVKGRFTISRDTAKNTVYFQMISQKPEDTAVYYCATPYDIQWASESHDYWGQGTQVTVSS | low polyreactivity |

Assign polyreactivity (PSR sort gate) to the following record: QVQLVESGGGLVQAGGSLRLSCAASGSTFIYYAMGWYRQAPGKERELVAAISGSGASTYYADSVKGRFTISRDNAKNTVYLQMNSLKPEDTAVYYCAARSYGITDYGMYSWGQGTQVTVSS
high polyreactivity

----------
Test: yeast display, Sf9 membrane polyspecificity reagent, FACS + sequencing; frameworks hold sequencing errors
metric: polyreactivity (PSR sort gate)

Below, each entry is followed by its recorded polyreactivity (PSR sort gate) result.
| query.sequence | polyreactivity (PSR sort gate) |
| --- | --- |
| QVQLVESGGGLVQAGGSLRLSCAASGRIFYYNTMGWYRQAPGKERELVAAITRSGGSTYYADSVKGRFTISRDNAKNTVYLQMNSLKPEDTAVYYCAAQRRYDTADHGYWGQGTQVTVSS | high polyreactivity |
| QVQLVESGGGLVQAGGSLRLSCAASGNIFRINAMGWYRQAPGKERELVAAISRSVGSTYADSVKGRFTISRDNAKNTVYLQMNSLKPEDTAVYYCNARGRTQQRWVDYWGQGTQVTVSS | high polyreactivity |
| QVQLVESGGGLVQAGGSLRLSCAASGSIFDRNAMGWYRQAPGKERELVATITWSGVSTYYADSVKGRFTISRDNAKNTVYLQMNSLKPEDTAVYYCNADYSYRHWYDPGQYGQAMGYWGLGTQVTVSS | low polyreactivity |
| QVQLVEAGGGLVQAGGSLRLTCAASGSIISRYAMGWYRQAPGKEREFVAAISSSGGSTYYADSVKGRFTISRDNAKNTVDVQMNSLKPEDTAVYYCARYAYKVPIMGYWGQGTQVTVSS | high polyreactivity |

Consider the additional sequence presented here.
Assign polyreactivity (PSR sort gate) to the following record: QVQLVESGGGLVQAGGSLRLSCAASGSTFITNAMGWYRQAPGKERELVAAISSSGGSTYYADSVKGRFTISRDNAKNTVYLQMNSLKPEDTAVYYCNAVPYVPRFDYWGQGTQVTVSS
low polyreactivity

----------
Assay: yeast display, Sf9 membrane polyspecificity reagent, FACS + sequencing; frameworks hold sequencing errors
metric: polyreactivity (PSR sort gate)

Below, each entry is followed by its recorded polyreactivity (PSR sort gate) result.
| query.sequence | result |
| --- | --- |
| QVQLVESGGGLVQAGGSLRLSCAASGSILRPNAMGWYRQAPGKERELVAAITTTGGSTYYADSVKGRFTISRDNAKNTVYLLMNRLKPEDTAVYYCAAEYVYLYYLYLYYYWGQGTQVTVSS | high polyreactivity |
| QVQLVESGGGLVQAGGSLRLSCAASGFTFPRYAMGWYRQAPGKERELVAAISYSGGRTYYADSVKGRFTISRDNAKNTVYFQMNSLKPEDTAVYYFATEASTKRYDYWGQGTQVSVSS | high polyreactivity |
| QVQLVESGGGLVQAGGSLRLSCAASGSTSSNNAMGWYRQAPGKERELVADISTNGDSTSYADSVKGRFTISRDNAKNTVYLQMNSLKPEDTAVYYCNKDFVYPDDDGLFDYWGQGTQVTVSS | low polyreactivity |
| QVQLVESGGGLVQAGGSLRLSCAASGRIFYNYAMGWYRQAPGKERELLAAISWSGTSTYYADSVKGRFTISRDNAKNTVYLQMNSLKPEDTAVYYCATDRTYTARGYYLEYHRYDYRGQGTQVTVSS | low polyreactivity |

Assign polyreactivity (PSR sort gate) to the following record: QVQLVESGGGLVQAGGSLRLSCAASGITLEDYDMGWYRQAPGKERELVAAITSGGSTNYADSVKGRFTISRDNAKNTVYLQMNSMKPEDTAVYYCNADFAIRWWYYFGSGYDYWGQGTQVTVSS
low polyreactivity

Assign polyreactivity (PSR sort gate) to the following record: QVQLVESGGGLVQAGGSLRLSCAASGFTFGKYGMGWYRQAPGKERELVAAISASGGITYYADSVKGRFTISRDNAKNTVYLQMNSLKPEDTAVYYCAVRRRYGAFISYDYWGQGTQVTVSS
high polyreactivity

Assign polyreactivity (PSR sort gate) to the following record: QVQLVESGGGLVQAGGSLRLSCAASGFIFGSNVMGWYRQAPGKERELVAAISRSGGSTYYADSVKGRFTISRDNAKNTVYLQMNSLKPEDTAVYYCNKLAVGRSRTGDYWGQGTQVTVSS
high polyreactivity

Assign polyreactivity (PSR sort gate) to the following record: QVQLVESGGGLVQAGGSLRLSCAASGSIFYGYAMGWYRQAPGKERELVAAISRRGGSTYYADSVKGRFTISRDIAKNTVDLQMNSLKPEDTAVYYCAAVGLWYEYYYWGQGTQVTVSS
high polyreactivity

Assign polyreactivity (PSR sort gate) to the following record: QVQLVESGGGLVQAGGSLRLSCAASGRTFYSYAMGWYRQAPGKERELVAAITSGDSTNYADSVKGRFTISRDNAKNTVYLQMNSLKPEDTAVYYCAAEYSGWYWYQHYNYWGQGTQVTVSS
high polyreactivity

Assign polyreactivity (PSR sort gate) to the following record: QVQLVESGGVIVQAGGSLRLSCAATGSNFWSYAMGSSRPAPGKERELVASITRSGGSTYYADSVKGRFTISRDNAKNTVYSQMNSLKPEDTAVYYCNARRTTRWGSSKYEYDYWGQGTQVTVSS
high polyreactivity

Assign polyreactivity (PSR sort gate) to the following record: QVQLVESGGGLVQAGGSLRLSCAASGGMGWYRQAPGKERELVATISSVGSTNYADSVKGRFTISRDNAKNTVYLQMNSLKPEDTAVYYCIATGVQYFLYGYWGQGTQVTVSS
low polyreactivity

----------
Experiment: yeast display, Sf9 membrane polyspecificity reagent, FACS + sequencing; frameworks hold sequencing errors
metric: polyreactivity (PSR sort gate)

Below, each entry is followed by its recorded polyreactivity (PSR sort gate) result.
| query.sequence | polyreactivity (PSR sort gate) |
| --- | --- |
| QVQLVESGGGLVQAGGSLRLSCAASGSIFTWNGMGWYRQAPGKERELVAAISNGASTNYAESVKGRFTISRDNAKNTVYLQMNSLKPEDTAVYYCAAKSTGRYDYWGQGTQVTVSS | low polyreactivity |
| QVQLVESGGGLVQAGGSLRLSCAASGGTFRTYTMGWYRQAPGRVRELVAGISSRGGSTYYADSVKGRFTISRDNAKKTLYLQMNSLKPEDTAVYNCAVRHLNKRRDDYWGQGTQVTVSS | high polyreactivity |
| QVQLVESGGGLVQAGGSLRLSCAASGFTFVRYVMGWYRQAPGKERELVAAISRSGGSTHYADSVKGRFTISRDNAKNTVYLQMNSLKPEDTAVYYCADASPRWPGQGDYWGQGTQVTVSS | high polyreactivity |
| QVQLVESGGGLGEAGGSLRLSCAASGSTFGYYAMGWYRQAAGKEREFVAAITGNSDNTYYADSVKGRFTISRDNATNTVYLQMNSLKPEDTAVYYCNDALDPFRFEYWRQGTQVTVSS | low polyreactivity |

Consider the additional sequence presented here.
Assign polyreactivity (PSR sort gate) to the following record: QVQLVQTGGGVVQAGGSLRLSCAASGRIFNSYPMGWYRQAPGKERELVASINRYGGSTYYADSVKGRFTISRDNAKNTVYLQMYSLNPEDTSVYYCAARGYTSFNTGYGYWGQGTQVSVSS
high polyreactivity
